B1: mRNA-splicing (parent)
chain: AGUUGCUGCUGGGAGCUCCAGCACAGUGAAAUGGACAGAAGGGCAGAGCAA

variants of: B1; assay: exon inclusion enrichment index; higher = more inclusion; WT1 exon 5 minigene, HEK293
parameter: exon inclusion enrichment index
Answers are plain numbers.

Some solved cases for reference:
AGUUCACACAGGGAGCUCCAGCACAGUGAAAGUGACAGAAGGGCAGAGCAA :: 0.009
AGUUAGGGAUGGGAGCUCCAGCACAGUGAACUGGACAGAAGGGCAGAGCAA :: 0.00349
AGUUUCUUUUGGGAGCUCCAGCGUAGUGAAAUGGACAGAAGGGCAGAGCAA :: 0.0193
AGUUGAAGAAGGGAGCUCCAGCACAGUGAAAUGGGAAGAAGGGCAGAGCAA :: 0.281
AGUCUACACAGGGAGCUCCAGCACAGUGAAAUGGACAGAAGGGCAGAGCAA :: 0.501

List reported exon inclusion enrichment index for each of these variants:
1. AGUUGCUGCACGGAGCUCCAGCACAGUGAAAUGGACAGAAGGGCAGAGCAA
2. AGUUCACAAAGGGAGCUCCAGCACAGUGAAAUGGACAGAAGGGCAGAGCAA
3. AGUUCGCGCCGGGAGCUGAAGCACAGUGAAAUGGACAGAAGGGCAGAGCAA
4. AGUUAGGGAUGGGAGCUCCAGCACAGUGAAAUGGACAGAAGGGCAGCACAA
5. AGUUCACUCAGGGAGCUCCAGCACAGUGAAAUGGACAGAAGGGCAGAGCAA
6. AGUUCACACAGGGAAAUCCAGCACAGUGAAAUGGACAGAAGGGCAGAGCAA
7. AGUUGAAGAAGGGAGCUCCAGCACAGUGAAAUGGACAGAAGUGCAGAGCAA

-- reply
2.77
0.239
4.24
0.011
0.146
0.00997
0.988

Working through the 5 variants below one at a time, give exon inclusion enrichment index for each.
1. AGUUACCACCGGGAGCUCCAGCACAGUGAAAUGGAAGGAAGGGCAGAGCAA
2. AGUUCGCGCCGGGAGCUCCAGCACAGUGAAAUGGACAGAAGGGCACUGCAA
3. AGUUAUAUAUGGGAGCUCCAGCACAGUGAAAGGGACAGAAGGGCAGAGCAA
4. AGUUCGCGCCGGGAGCUCGUGCACAGUGAAAUGGACAGAAGGGCAGAGCAA
5. AGUUCUUCUCGGGAGCUCCAGCACAUAGAAAUGGACAGAAGGGCAGAGCAA

-- reply
1. 1.06
2. 2.37
3. 0.0013
4. 3.16
5. 0.886

For every listed record, write down its exon inclusion enrichment index.
1. AGUUGACGACGGGAGCUCCAGCAUGGUGAAAUGGACAGAAGGGCAGAGCAA
2. AGUGAUAUAUGGGAGCUCCAGCACAGUGAAAUGGACAGAAGGGCAGAGCAA
3. AGUUGACGACGGGAGCUCCAGCACAGUCAAAUGGACAGAAGGGCAGAGCAA
4. AGUUGCUGCUGGGAGCUCCAGCAAUGUGAAAUGGACAGAAGGGCAGAGCAA
5. AGUUAUAUAUGGGAGCUCCAGCAGGGUGAAAUGGACAGAAGGGCAGAGCAA

-- reply
[3.92, 0.156, 3.06, 0.16, 0.0168]

Batch: exon inclusion enrichment index for all items listed.
1. AGUUGAAGAAGGGAGCUCCAGCACAUAGAAAUGGACAGAAGGGCAGAGCAA
2. AGUUAUAUAUGGGAGCUCCAGCACAGUGAAGCGGACAGAAGGGCAGAGCAA

-- reply
[0.264, 0.424]
